Hey, just so you know, these numbers are from paper PMC5175178.

Could you please report measured IC50 for the items listed next?
Target: huBChE (Homo sapiens)
Construct: made in house
Sequence (P06276 29-602): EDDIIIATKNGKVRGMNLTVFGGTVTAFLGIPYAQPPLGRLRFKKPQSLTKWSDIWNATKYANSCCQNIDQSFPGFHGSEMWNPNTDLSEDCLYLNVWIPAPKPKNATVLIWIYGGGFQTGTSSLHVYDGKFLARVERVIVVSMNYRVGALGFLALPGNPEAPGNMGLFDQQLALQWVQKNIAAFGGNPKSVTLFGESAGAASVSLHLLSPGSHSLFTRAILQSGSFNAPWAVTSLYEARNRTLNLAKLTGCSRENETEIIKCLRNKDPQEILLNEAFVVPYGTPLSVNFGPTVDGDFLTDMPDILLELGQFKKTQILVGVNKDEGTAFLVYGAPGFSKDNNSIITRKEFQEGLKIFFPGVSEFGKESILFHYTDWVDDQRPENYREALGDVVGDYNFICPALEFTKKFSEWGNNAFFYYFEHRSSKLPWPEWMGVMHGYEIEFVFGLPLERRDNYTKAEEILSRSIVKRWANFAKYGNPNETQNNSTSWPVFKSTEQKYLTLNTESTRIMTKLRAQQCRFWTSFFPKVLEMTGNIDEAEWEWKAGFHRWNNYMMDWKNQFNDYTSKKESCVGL
Format: biochemical
Settings: Supplementary Table 1; head prints no unit, nM; read-out: IC50 ±SEM huBChE
Numbers only, in nM.

Provide reported IC50 for each item, in the same order as listed.
1. COCCN(CC1CCCN(Cc2ccc(C#N)cc2)C1)S(=O)(=O)c1ccc2ccccc2c1 (racemic)
2. COCCN(CC1CCCN(C2Cc3ccccc3C2)C1)S(=O)(=O)c1ccc(N)cc1 (racemic)
3. COCCN(CC1CCCN(C2Cc3ccccc3C2)C1)S(=O)(=O)c1cccc(NC(C)=O)c1 (racemic)
4. COCCN(CC1CCCN(C2Cc3ccccc3C2)C1)S(=O)(=O)c1ccc([N+](=O)[O-])cc1 (racemic)
5. COCCN(CC1CCCN(C2Cc3ccccc3C2)C1)S(=O)(=O)c1ccc(F)cc1 (racemic)
6. Cc1nc(CN2CCCC(CNS(=O)(=O)c3ccc4ccccc4c3)C2)cs1 (racemic)

Reply:
[1460, 314, 8210, 3470, 887, 336]

Task item: Name the reported IC50 value associated with the molecule COCCN(CC1CCCN(C2Cc3ccccc3C2)C1)S(=O)(=O)c1ccccc1C(=O)OC (racemic)
Reply: 359

---

System: ABCB1
Assay: Caco-2 monolayer bidirectional permeability assay
Conditions: human, Caco-2, apical-to-basolateral apparent permeability coefficient, no inhibitor
readout-name: Papp A→B at 120 min (×10⁻⁶ cm/s)
Give bare numbers, in ×10⁻⁶ cm/s.

Task item: // Papp A→B at 120 min lookup, key: "COC(=O)c1ccccc1-c1c2ccc(=N)cc-2oc2cc(N)ccc12"
Reply: 1.1

---

Test: in vitro
Settings: both, human, cryopreserved human hepatocytes, pH 7.3
readout-name: half-life at 1 µM
In your response, the unit should come after the numeric value.

Task item: May I ask what half-life at 1 µM has been recorded for O=c1cc(C(F)(F)F)c2ccc(O)cc2o1 [HFC, 7-hydroxy-4-trifluoromethylcoumarin] ?
Reply: 40.4 min

---

Test: in vitro
Details: both, human, hepatocytes, pH 7.3
readout-name: half-life at 1 µM (min)
Numbers only, in min.

Recorded half-life at 1 µM, per entry:
molecule: CCN(CC)CCN1C(=O)CN=C(c2ccccc2F)c2cc(Cl)ccc21 [Flurazepam]
readout-name: half-life at 1 µM
quantity-unit: min
readout-number: 43.3
//
molecule: C=CCN1CC[C@]23c4c5ccc(O)c4O[C@H]2C(=O)CC[C@@]3(O)[C@H]1C5 [Naloxone]
readout-name: half-life at 1 µM
quantity-unit: min
readout-number: 51.5

Consider now this further molecule.
Task item: I'd like to know its half-life at 1 µM. The molecule in question is COCCN(CC1CCCN(Cc2ccccc2)C1)S(=O)(=O)c1ccc2ccccc2c1 (racemic) [compound 2]
Reply: 55.7

---

Biological target: huBChE (Homo sapiens)
Construct: made in house
Assay type: biochemical
Conditions: Supplementary Table 1; head prints no unit, nM; read-out: IC50 ±SEM huBChE
What IC50 was measured for each of the following?
One number for each entry, in nM.

Example cases with answers are listed next.
molecule: COCCN(CC1CCCN(C2Cc3ccccc3C2)C1)S(=O)(=O)c1ccc(NC(C)=O)cc1 (racemic) [compound 23]
quantity-unit: nM
IC50: 321
--
molecule: CCCN(CC1CCCN(Cc2ccccc2)C1)S(=O)(=O)c1ccc2ccccc2c1 (racemic) [compound 47]
quantity-unit: nM
IC50: 42.8
--
molecule: COCCN(CC1CCCN(Cc2ccc(F)cc2)C1)S(=O)(=O)c1ccc2ccccc2c1 (racemic) [compound 37]
quantity-unit: nM
IC50: 23.1

Now consider a different molecule.
Task item: IC50 for CCN(CC1CCCN(Cc2ccccc2)C1)S(=O)(=O)c1ccc2ccccc2c1 (racemic) [compound 46] ?
Reply: 38
